Values were extracted from paper PMC6755732.

# testSystem: MtrR (Neisseria gonorrhoeae, UniProt P39897 1-210)
# testName: fluorescence polarization; no bile salt; FP: 20 mM Tris-HCl pH 8.0, 100 mM NaCl, 2.5% glycerol, 1 nM DNA, temperature not stated; EMSA: 20 mM Tris pH 8.0, 200 mM NaCl, 10% glycerol, 1 mM TCEP, 1 ug poly(dI-dC), room temperature, 2% agarose TAE
# conditionLabel: protein: recombinant; tags: His6 removed by thrombin; chain copies: 2
observedProperty: Kd (nM)

binder	observedProperty	numericResult
mtrC (mtrCDE) operator 27-mer, fluorescein (dsDNA) DNA 1: TTTTTATCCGTGCAATCGTGTATGTAT DNA 2: ATACATACACGATTGCACGGATAAAAA	Kd	18
